Attribution: PubChem BioAssay AID179

System: CEM cells HIV-1 protection, formazan growth assay
Assay: NCI AIDS Antiviral Assay
Conditions: measured here: growth of uninfected CEM cells

{"compound": "O=C1CC2[C@@H](N3CCCC3)CCC(N1Cc1ccccc1)C2(O)O (stereo partly specified)", "IC50": "> 200 µM"}
{"compound": "Cc1ccc(-c2n[nH]c(=O)n2N2C(=O)c3ccccc3C2=O)cc1", "IC50": "> 200 µM"}
{"compound": "Cc1ccc(CS(=O)(=O)C/N=c2\\sc3ccccc3nc2/C=C(\\O)c2ccc(Cl)cc2)cc1", "IC50": "> 200 µM"}
{"compound": "CC(=O)NNc1nc(C)c(C(/C=C/c2ccccc2O)=N/NC(=O)c2ccncc2)s1", "IC50": "> 22.4 µM"}
{"compound": "CC1=NN(c2ccccc2)C(=O)/C1=C1\\SS/C(=C2\\C(=O)N(c3ccccc3)N=C2C)S1", "IC50": "> 100 µM"}
{"compound": "CCC(C)C(NC(=O)C(CCCCN)NC(=O)CNC(=O)C(NC(=O)C(NC(=O)C(NC(=O)C(Cc1ccccc1)NC(=O)C(C)NC(=O)C(CCCNC(=N)N)NC(=O)CNC(=O)C1CCCN1C(=O)CNC(=O)C(CCCNC(=N)N)NC(=O)C(CCC(N)=O)NC(=O)C(NC(=O)C(CCCNC(=N)N)NC(=O)C(NC(=O)C(CO)NC(=O)C(CCCCN)NC(=O)C(CCCNC(=N)N)NC(=O)C(NC(=O)C(CC(N)=O)NC(=O)C(N)CC(=O)NC1OC(CO)C(O)C(O)C1NC(C)=O)C(C)O)C(C)CC)C(C)CC)C(C)C)C(C)O)C(C)CC)C(=O)NCC(N)=O (stereo unspecified)", "IC50": "> 50.1 µM"}
{"compound": "Cc1cc(NS(=O)(=O)c2ccc(Nc3c4ccccc4nc4c(C(=O)N5CCN(CCO)CC5)ccc(Cl)c34)cc2)no1", "IC50": "> 47.9 µM"}
{"compound": "O=S(CCc1ccccc1)Nc1ccccc1 (stereo unspecified)", "IC50": "> 200 µM"}
{"compound": "CC(C)=CCC/C(C)=C/CC/C(C)=C/C(O)c1ccccc1 (stereo unspecified)", "IC50": "> 50.1 µM"}
{"compound": "CCOc1ccc(N=Nc2ccc3oc(=O)c(/C(C)=N\\NC(=O)CC(=O)Nc4ccc(Cl)cc4)cc3c2)cc1", "IC50": "> 13.2 µM"}
{"compound": "CCN(CC)CCOC(=O)CCN1CC2CCC(CC2)C1", "IC50": "> 200 µM"}
